Source listed as ChEMBL document CHEMBL4266000.

# Tested on: HepG2
# Method: Antiproliferative activity against human HepG2 cells after 72 hrs by MTT assay
# Assay type: functional, cell-based
# Test context: HepG2, 72 h
Please provide measured IC50 for the entries that follow.
Give bare numbers, in µM.

Provide the reported IC50 of each entry below, same order.
1. COc1ccc2c(c1O)COC=C2c1cc(OC)c(OC)c(OC)c1
2. COc1ccc2c(c1O)COCC2c1cc(OC)c(OC)c(OC)c1 (racemic)
3. COc1ccc2c(c1O)COC(C)C2=O (stereo not given)

Result:
1: 0.026; 2: 0.015; 3: 23.7

* * *

# System: HCT-8
# Method: Antiproliferative activity against human HCT8 cells after 72 hrs by MTT assay
# Assay type: functional, cell-based
# Test context: HCT-8, 72 h
Measured quantity: pIC50
Give bare numbers, as −log10 of the molar value.

Compound	Measured quantity	Recorded result
COc1ccc2c(c1O)COC(C)C2=O (stereo unspecified)	pIC50	4.45
COc1ccc(/C=C\c2cc(OC)c(OC)c(OC)c2)cc1O	pIC50	7.82
COc1ccc2c(c1O)COCC2c1cc(OC)c(OC)c(OC)c1 (racemic)	pIC50	7.52
COc1ccc2c(c1O)COC[C@H]2c1cc(OC)c(OC)c(OC)c1	pIC50	6.03

Provide the reported pIC50 of each entry below, same order.
1. COc1ccc2c(c1O)COC=C2c1cc(OC)c(OC)c(OC)c1
2. COc1ccc2c(c1O)COC[C@@H]2c1cc(OC)c(OC)c(OC)c1

Result:
[7.60, 7.92]
